// provenance: patent US20190262327A1

tgt: T1, biotinylated synthetic human Amyloid beta 1-42 peptide (human, UniProt P05067 672-713, biotinylated (N-terminal biotin in Example 4))
T1 construct: domain: Amyloid beta 1-42 peptide; Numbers 1-42 count on the Amyloid beta peptide, not on APP; also called biotinylated human Amyloid beta 1-42; N-terminal biotin Abeta 1-42
run-description: SPR (ProteOn); biotinylated peptide on streptavidin chip, scFv in solution
metric: pKd
Entry type: numeric. Quantity: pKd, the -log10 of concentration in molar units.

Field: example entries. Status: answers known.
INSERT INTO results (binder, observed) VALUES
  ('Abet0374 scFv (scFv, V domains shown, not shown: small tags and cut ends, Purified scFv expressed in E. coli) VH: EVQLLESGGGLVQPGGSLRLSCAASGFQFKDTPMWWVRQAPGKGLEWVSVIGDQNHKKAYADSVKGRFTISRDNSKNTLYLQMNSLRAEDTAVYYCAREWMDHSRPYYYYGMDAWGQGTLVTVSS VL: SYELTQPPSVSVTPGQTASITCSGHNLGGKFASWYQQKPGQSPVLVIYRDDKRPSGIPERFSASNFGHTATLTISGTQATDEADYYCSSQDTVTRVFGGGTKLTVL', 9.63),
  ('Abet0322b scFv (scFv, V domains shown, not shown: small tags and cut ends, Purified scFv expressed in E. coli) VH: EVQLLESGGGLVQPGGSLRLSCAASNEEFQYNPMWWVRQAPGKGLEWVSVIGSSGGATVYADAVKGRFTISRDNSENTLYLQMNSLRAEDTAVYYCAREWMDHSRPYYYYGMDVWGQGTLVTVSS VL: SYELTQPPSVSVSPGQTASITCSGHNLGDKFASWYQQKPGQSPVLVIYRDDKRPSEIPERFSASNSGHTATLTISGTQATDEADYYCSSQDTVTRVFGGGTKLTVL', 9.09);

Then this binder:
QUERY: Endpoint output: pKd of Abet0373 scFv (scFv, V domains shown, not shown: small tags and cut ends, Purified scFv expressed in E. coli) VH: EVQLLESGGGLVQPGGSLRLSCVASGFDFERSVMWWVRQAPGKRLEWVSVIGSGKTNITYADSVKGRFTISRDNSKNTLYLQMNSLRAEDTAVYYCAREWMDHSRPYYYYGMDVWGQGTLVTVSS VL: SYELTQPPSVSVSPGQTASITCSGHNLEDKFASWYQQKPGQSPVLVIYRDDKRPSEIPERFSASNSGHTATLTISGTQATDEADYYCSSQDTVTRVFGGGTKLTVL . Value?
RESULT: 9.32
